Sourced from patent US12037324B2

Field: EC50. Provide a value for each of the compounds that follow.
- targetOrTestSystem: hAT1R (Homo sapiens)
- test: BRET Gq biosensor assay, agonist response, HEK293 cells
- Assay type: cell-based
- assaySetup: section of the 42nd table directly before the BRET P63 section
Respond numerically; units are nM and should not be typed.

Lab note: hAT1R (Homo sapiens) assay, enter EC50 for CCOc1nc2cccc(C(=O)O)c2n1Cc1ccc(-c2cc(-c3cnc(OC)c(C)c3)ccc2-c2nn[nH]n2)cc1 [Example 328] here
2620

Param request: EC50 | system hAT1R (Homo sapiens) | item CCCCc1ncc(C(=O)Nc2ccncc2C)n1Cc1ccc(-c2cc(-c3ccccc3)ccc2-c2nn[nH]n2)cc1 [Example 375]
273

Look up hAT1R (Homo sapiens) data: EC50 of CCCCC(=O)N(Cc1ccc(-c2cc(-c3ccccc3)ccc2-c2nn[nH]n2)cn1)[C@H](C(=O)O)C(C)C [Example 431] , then report it.
910

Write down measured EC50 (hAT1R (Homo sapiens)) for this compound. CCCCc1ncc(C(=O)NCC)n1Cc1ccc(-c2cc(-c3ccccc3)ccc2-c2nn[nH]n2)cc1 [Example 379]
106

Give the observed EC50 of CC(C)CCC(=O)N(Cc1ccc(-c2cc(-c3ccccc3)ccc2-c2nn[nH]n2)nc1)[C@H](C(=O)O)C(C)C [Example 433] for hAT1R (Homo sapiens).
581

# return EC50 for CCCCc1ncc(C(=O)NCCC(C)(C)O)n1Cc1ccc(-c2cc(-c3ccccc3)ccc2-c2nn[nH]n2)cc1 [Example 350] , test system: hAT1R (Homo sapiens)
25.3

----------
- targetOrTestSystem: hAT1R (Homo sapiens, UniProt P30556)
- test: cell-based
- assaySetup: agonist mode; read-out: BRET P63 EC50
Assignment: determine reported EC50 for the given molecules.
Give the number; nM is assumed, so skip it.

Give the value of EC50 reported for the following: "CCOc1nc2cccc(C(=O)O)c2n1Cc1ccc(-c2cc(-c3cc(C)ccn3)ccc2-c2nn[nH]n2)cc1"
3.8

Supply EC50 value. Item: "CCc1nc2c(C)cc(C)nc2n1Cc1ccc(-c2cc(Oc3cccnc3F)ccc2-c2nn[nH]n2)cc1"
11.2

Provide EC50 value for the following molecule: "CCOc1nc2cccc(C(=O)O)c2n1Cc1ccc(-c2cc(-c3cccc(C)n3)ccc2-c2noc(=O)[nH]2)cc1"
29.7

Look up and state reported EC50 for "CCc1nc2c(C)cc(C)nc2n1Cc1ccc(-c2cc(N3CCCC(F)(F)C3)ccc2-c2nn[nH]n2)cc1"
54.8

Provide one value: measured EC50 of "CCOc1nc2cccc(C(=O)O)c2n1Cc1ccc(-c2cc(-c3c[nH]c4ccccc34)ccc2-c2noc(=O)[nH]2)cc1"
53.7

Output measured EC50 for this item: "CCc1nc2c(C)cc(C)nc2n1Cc1ccc(-c2cc(-c3ccccc3)ccc2-c2nn[nH]n2)cc1"
4.8

Using known records, supply EC50 for "CCOc1nc2cccc(C(=O)O)c2n1Cc1ccc(-c2cc(-c3cc(OC)ccn3)ccc2-c2noc(=O)[nH]2)cc1"
13.6

Please indicate EC50 recorded for "CCOc1nc2cccc(C(=O)O)c2n1Cc1ccc(-c2cc(Oc3ccccc3F)ccc2-c2nn[nH]n2)cc1"
15.7

----------
- targetOrTestSystem: hAT1R (Homo sapiens, UniProt P30556)
- Sequence (P30556 1-359): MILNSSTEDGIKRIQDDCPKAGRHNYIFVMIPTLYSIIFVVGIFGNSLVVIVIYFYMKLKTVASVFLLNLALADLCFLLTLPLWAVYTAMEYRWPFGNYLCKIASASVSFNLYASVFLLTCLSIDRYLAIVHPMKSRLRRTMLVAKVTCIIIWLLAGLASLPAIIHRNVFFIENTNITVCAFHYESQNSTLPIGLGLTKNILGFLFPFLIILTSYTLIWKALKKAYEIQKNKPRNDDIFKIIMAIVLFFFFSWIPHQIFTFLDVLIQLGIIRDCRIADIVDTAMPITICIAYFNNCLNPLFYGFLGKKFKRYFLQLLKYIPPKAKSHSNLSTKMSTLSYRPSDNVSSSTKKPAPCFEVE
- test: BRET β-arrestin2 biosensor assay, higher receptor expression (hAT1R 5 ng/well), HEK293 cells
- Assay type: cell-based
- assaySetup: High AT1R Expression
Dear colleague, classification is by EC50, with ranges listed here: range 1 = under 20 nM, range 2 = from 20 nM up to 70 nM, range 3 = 70 nM and over

Kindly identify the class of "CCc1nc2c(C)cc(C)nc2n1Cc1ccc(-c2cc(-c3ccc(C(=O)N(C)C)cc3)ccc2-c2nn[nH]n2)cc1" .
range 2

Class? Entry: "CCc1nc2c(C)cc(C)nc2n1Cc1ccc(-c2cc(Nc3ccccc3)ccc2-c2nn[nH]n2)cc1"
range 1

Any idea which band "CCCCC1=NC2(CCCC2)C(=O)N1Cc1ccc(-c2cc(-n3ccc4ccccc43)ccc2-c2nn[nH]n2)cc1" is in?
range 2

Which class does "CCCCc1ncc(C(=O)NCC(F)F)n1Cc1ccc(-c2cc(-c3ccccc3)ccc2-c2nn[nH]n2)cc1" fall in?
range 2

Please indicate the class for "CCc1nc2c(C)cc(C)nc2n1Cc1ccc(-c2cc(-c3cccc(C)c3)ccc2C(=O)O)nn1" based on its EC50.
range 3

Into which category would you place "CCCCC1=NC2(CCCC2)C(=O)N1Cc1ccc(-c2cc(-c3ccccc3)ccc2-c2noc(=O)[nH]2)cc1" ?
range 1

Entry "CCCCc1nc(Cl)c(C(=O)O)n1Cc1ccc(-c2cc(-c3cnn(C(F)F)c3)ccc2-c2nn[nH]n2)cc1" belongs to which category?
range 1

Into which category would you place "CCOc1nc2cccc(C(=O)O)c2n1Cc1ccc(-c2cc(-c3cccc(C)c3)ccc2C(=O)O)cc1" ?
range 1

# classify by EC50 band: "CCCCc1ncc(C(=O)N[C@@H](CC)C2CC2)n1Cc1ccc(-c2cc(-c3ccccc3)ccc2-c2nn[nH]n2)cc1"
range 3

Which class does "CCc1nc2c(C)cc(C)nc2n1Cc1ccc(-c2cc(-c3cccc(C)c3)ccc2-c2nnn[nH]2)cn1" fall in?
range 1

Form: Item = "CCCCC1=NC2(CCCC2)C(=O)N1Cc1ccc(-c2cc(-c3ccccc3CO)ccc2-c2nn[nH]n2)cc1" ; Class = ?
range 3

Dear colleague, I would appreciate it if you could identify the bin for "CCc1nc2c(C)cc(C)nc2n1Cc1ccc(-c2cc(-c3cc(C)ccn3)ccc2-c2nn[nH]n2)cc1" and reply at your convenience.
range 1

# bin label for "CCc1nc2c(C)cc(C)nc2n1Cc1ccc(-c2cc(Oc3ccccc3)cc(C)c2-c2nnn[nH]2)cc1"
range 2

Given "CCCCc1ncc(C(=O)NCC(C)(C)COC)n1Cc1ccc(-c2cc(-c3ccccc3)ccc2-c2nn[nH]n2)cc1" , name the class its EC50 places it in.
range 2

Class for "CCc1nc2c(C)cc(C)nc2n1Cc1ccc(-c2cc(-c3ccc4ncccc4c3)ccc2-c2nn[nH]n2)cc1" ?
range 1

Returns: class label. Input: "CCCCC1=NC2(CCCC2)C(=O)N1Cc1ccc(-c2cc(-c3ccccc3)ccc2-c2noc(=O)[nH]2)cn1"
range 1

Hi, small favor: classify "CCCCC1=NC2(CCCC2)C(=O)N1Cc1ccc(-c2cc(-c3ccsn3)ccc2-c2nn[nH]n2)cc1" by its EC50 when you get a moment.
range 2

Form field 'band' for CCCCC1=NC2(CCOC2)C(=O)N1Cc1ccc(-c2cc(-c3ccccc3F)ccc2-c2nnn[nH]2)cc1 (single isomer, unassigned) [Example 149]
range 2

Textbook exercise: identify the category of the molecule given here, "CCCCC(=O)N(Cc1ccc(-c2cc(-c3ccccc3)ccc2-c2nn[nH]n2)cn1)C1(C(=O)O)CCCCC1" , according to its measured value.
range 3

Band for "CCCCC(=O)N(Cc1ccc(-c2cc(-c3ccc4ncccc4c3)ccc2-c2nn[nH]n2)cc1)[C@H](C(=O)O)C(C)C" ?
range 2

Band assignment needed for "CCc1nc2c(C)cc(C)nc2n1Cc1ccc(-c2cc(-c3cccs3)ccc2-c2nn[nH]n2)cc1" please.
range 1

Field: class (EC50) — entry: "CCc1nc2c(C)cc(C)nc2n1Cc1ccc(-c2cc(Oc3ccc(C)cn3)ccc2-c2nn[nH]n2)cc1"
range 1

State the band of "CCc1nc2c(C)cc(C)nc2n1Cc1cnc(-c2cc(-c3cccc(C)c3)ccc2C(=O)O)nc1"
range 3

Which class holds "CCc1nc2c(C)cc(C)nc2n1Cc1ccc(-c2cc(-c3cccc(C(=O)N(C)C)c3)ccc2-c2nn[nH]n2)cc1" ?
range 3

Band for "CCCCC1=NC2(CCCC2)C(=O)N1Cc1ccc(-c2cc(-c3ccccc3)ccc2-c2nn[nH]n2)cn1" ?
range 2

Category of "CCCCc1nc(Cl)c(CO)n1Cc1ccc(-c2cc(-c3ccccc3)ccc2-c2nnn[nH]2)cc1" :
range 3

Band assignment needed for "CCCCc1ncc(C(=O)O)n1Cc1ccc(-c2cc(-c3ccccc3)ccc2C(=O)O)cc1" please.
range 3
